- Target: T1, human FRγ (Homo sapiens, UniProt P41439)
- T1 construct: CD33 signal peptide (N, cleaved yes); made in house
- T1 sequence (P41439 with tags, fused parts or gaps): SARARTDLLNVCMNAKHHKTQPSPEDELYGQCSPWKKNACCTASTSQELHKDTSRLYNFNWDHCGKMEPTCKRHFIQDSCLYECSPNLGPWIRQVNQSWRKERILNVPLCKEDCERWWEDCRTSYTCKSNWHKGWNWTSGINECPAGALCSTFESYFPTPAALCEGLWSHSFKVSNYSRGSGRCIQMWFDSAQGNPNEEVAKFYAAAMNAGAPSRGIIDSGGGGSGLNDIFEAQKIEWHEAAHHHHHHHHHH
- Procedure details: HTRF antigen (IgG) binding assay
- Assay setup: hybridoma supernatant, 1 nM biotinylated antigen; binder >30% delta F
Readout label: HTRF IgG binding assay (% Delta F) Human FRγ
Just the number in % Delta F, nothing appended.

# example entries with known answers
AB1370083: anti-FRα fully human IgG1 antibody; VH SEQ ID NO: 43, VL SEQ ID NO: 44 (antibody, V domains shown) VH: EVQLVESGGGLVKPGGSLRLSCAASGFTFSSYNMNWVRQAPGKGLEWVSSISSGSSYIYYADSMKGRFTISRDNAKNSLFLQMNSLRAEDTAVYYCARGMTTLTFDYWGQGTLVTVSS VL: DIQMTQSPSSLSASVGDRVTITCRASQGISTFLAWFQQKPGKAPKSLIYAASSLQSGVPSKFSGSGSETDFTLTISSLQPEDFATYYCQQYISYPLTFGGGTKVEIK : −2.92
AB1370026: anti-FRα fully human IgG1 antibody; VH SEQ ID NO: 39, VL SEQ ID NO: 40 (antibody, V domains shown) VH: EVQLVESGGGLVKPGGSLRLSCAASGFTFSSYAMSWVRQAPGKGLEWVSSISSGRSYIYYADSVKGRFTISRDNAKNSLYLKMNSLRDEDTAVYYCAREMQQLALDYWGQGTLVTVSS VL: DIQMTQSPSSLSASVGDRVTITCRASQGISNFLAWFQQAPGKAPKSLIYAASSLQSGVPSKFSGSGSGTDFTLTISSLQPEDFATYYCQQYNSYPFTFGQGTKLEIK : 1.31

Could you now look at the following molecule, please?
Problem: Please supply the value of reported HTRF IgG binding assay (% Delta F) Human FRγ for the item AB1370035: anti-FRα fully human IgG1 antibody; VH SEQ ID NO: 41, VL SEQ ID NO: 42 (antibody, V domains shown) VH: QVQLQQSGPGLVKPSQTLSLTCAISGDSVSSNSAAWNWIRQSPSRGLEWLGRTYYRSNWYNDYTLSVKSRITVNPDTSKNQFSLQLNSVTPEDTAVYYCVRGVGRFDSWGQGTLVTVSS VL: DIQMTQSPSTLSASVGDRVIITCRASQSISSWLAWYQQKPGKAPKLLIYKASSLESGVPSRFSGSGSGTEFTLTITSLQPDDFASYYCQEYKTYSIFTFGPGTKVDIK
Result: 9.2
